Reference for the values: the supplement of paper PMC10567573

B1: MGC27345 (parent)
chain: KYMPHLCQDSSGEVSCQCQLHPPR

- Variants of: B1
- test.protocol: protein stability index of a GFP-peptide fusion (GPS, HEK-293T) (PSI 1-6); higher = more stable;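 note: lentivirally expressed fusions sorted by FACS into six bins by GFP to DsRed ratio, PSI derived from sequencing read proportions per bin multiplied by bin number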
- condition.label: c terminus: a fixed tail appended
reported.property: protein stability index

{"columns": ["mutations", "observed.measurement"],
 "data": [
  ["G12F", 1.34],
  ["H21T", 3.51],
  ["C16K", 3.58],
  ["Q17A", 1.66],
  ["G12L", 2.08],
  ["G12T", 1.87],
  ["C16Y", 3.13],
  ["Q17D", 2.83],
  ["C16T", 2.96],
  ["E13L", 2.07],
  ["L6W", 1.53],
  ["M3L", 2.67],
  ["S15H", 1.64],
  ["P23S", 2.47],
  ["P23M", 2.2],
  ["Q8P", 2.15],
  ["Q19Y", 2.71],
  ["C7Y", 1.63],
  ["E13C", 2.14],
  ["Q17T", 1.81],
  ["C18T", 3.35],
  ["L20P", 3.73]
]}
